Data origin, for the record: the M2OR odorant receptor database

biological target: OR2W1 (Homo sapiens) (UniProt Q9Y3N9); conditions: stereoisomer not certain
Sequence (Q9Y3N9 whole entry): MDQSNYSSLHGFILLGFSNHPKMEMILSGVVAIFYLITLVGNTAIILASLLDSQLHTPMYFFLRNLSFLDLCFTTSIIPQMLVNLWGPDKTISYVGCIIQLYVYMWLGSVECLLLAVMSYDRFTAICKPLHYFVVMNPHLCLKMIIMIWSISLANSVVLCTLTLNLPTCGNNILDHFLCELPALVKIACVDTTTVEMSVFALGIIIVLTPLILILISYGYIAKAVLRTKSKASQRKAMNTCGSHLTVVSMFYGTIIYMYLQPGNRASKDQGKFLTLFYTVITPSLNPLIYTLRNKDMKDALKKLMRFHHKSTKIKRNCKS
Reply using exactly one outcome from active, inactive

As a guide, the following entries are already answered.
- CC(C)CCCCCCCCCCC=O: inactive
- CCCCCC(=O)CC(C)=O: active
- CCCCC(=O)OCC: active
- CCCCCC(S)C(C)CO (centres undefined): inactive
- CCCCCCCCC1CCC(=O)O1 (centres undefined): inactive

Now turn to the next molecule.
[ask] Recorded test call requested for CC1CCCCCCCCCCCCC(=O)C1 (centres undefined)
[reply] inactive

====

target: OR4N2 (Homo sapiens); conditions: stereoisomer not certain
QUANTITY_NAME: odorant receptor agonist call

• CC1CCCCCCCCCCCCC(=O)C1 (centres undefined) = inactive
• O=c1ccc2ccccc2o1 = inactive
• CCCCC(S)C(C)CO (centres undefined) = inactive
• CCC1OC(C)=C(O)C1=O (centres undefined) = inactive
• CC(=O)c1c(C)c([N+](=O)[O-])c(C(C)(C)C)c([N+](=O)[O-])c1C = inactive

[ask] Write down the reported odorant receptor agonist call of CCC1OC(=O)C(O)=C1C (centres undefined) , test system: OR4N2 (Homo sapiens).
[reply] inactive

[ask] Entry to check: CCCCCCC=CCCC=O
[reply] inactive

[ask] Follow-up item: CCCCCC(S)C(C)CO (centres undefined)
[reply] inactive

[ask] For CC1=C(O)C(=O)C(C)O1 (centres undefined) then?
[reply] inactive

====

biological target: Or5k16 (Mus musculus) (UniProt Q7TS48); conditions: stereoisomer not certain
Sequence (Q7TS48 whole entry): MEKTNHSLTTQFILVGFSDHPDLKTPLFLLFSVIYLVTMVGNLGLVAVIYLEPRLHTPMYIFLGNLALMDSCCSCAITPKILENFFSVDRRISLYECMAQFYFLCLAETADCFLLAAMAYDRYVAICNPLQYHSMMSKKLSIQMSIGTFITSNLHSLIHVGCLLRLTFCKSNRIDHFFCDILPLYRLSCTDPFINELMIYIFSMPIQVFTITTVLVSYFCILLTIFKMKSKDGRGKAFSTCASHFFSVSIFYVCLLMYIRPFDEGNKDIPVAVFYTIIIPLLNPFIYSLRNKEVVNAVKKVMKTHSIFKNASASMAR
QUANTITY_NAME: odorant receptor agonist call

Example results:
• Cc1cnc(C)c(C)n1 = inactive
• COC1=C(C)OC(C)C1=O (stereo unspecified) = inactive
• CC1=NC(C)C(C)S1 (stereo unspecified) = active
• CCc1nccnc1CC = inactive
• CCc1cnc(C)c(C)n1 = active
• CCc1nccnc1C = inactive
• Cc1cnc(C)cn1 = inactive
• C=Cc1cnccn1 = inactive
• CC(=O)c1cnccn1 = inactive
• COc1cnccn1 = inactive

Now for the compound whose odorant receptor agonist call we want.
[ask] Quick check: odorant receptor agonist call on Or5k16 (Mus musculus) (UniProt Q7TS48), item CCc1nccnc1C(C)=O ?
[reply] inactive

====

target: OR7C2 (Homo sapiens) (UniProt O60412); details: stereoisomer not certain
Sequence (O60412 whole entry): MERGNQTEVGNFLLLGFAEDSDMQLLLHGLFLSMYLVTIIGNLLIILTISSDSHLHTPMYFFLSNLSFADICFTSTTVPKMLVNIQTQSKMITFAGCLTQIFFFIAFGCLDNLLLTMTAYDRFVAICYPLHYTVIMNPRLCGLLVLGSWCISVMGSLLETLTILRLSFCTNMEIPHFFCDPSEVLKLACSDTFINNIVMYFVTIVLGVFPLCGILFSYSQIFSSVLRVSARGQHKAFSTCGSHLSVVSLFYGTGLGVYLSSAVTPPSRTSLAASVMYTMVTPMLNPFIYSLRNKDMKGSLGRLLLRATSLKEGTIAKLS
QUANTITY_NAME: odorant receptor agonist call

Please review the following examples before continuing.
- CC1=C(O)C(=O)OC1C (stereo unspecified): inactive
- CCCCC(S)C(C)CO (stereo unspecified): inactive
- CCC(S)C(C)CO (stereo unspecified): inactive
- CCCCCC(S)C(C)CO (stereo unspecified): inactive
- CCC1OC(C)=C(O)C1=O (stereo unspecified): inactive

[ask] Return odorant receptor agonist call measured with OR7C2 (Homo sapiens) (UniProt O60412) given this compound: Cc1cnc(C)c(C)n1
[reply] inactive

====

system: OR2W1 G96V; conditions: stereoisomer not certain
Sequence (as listed by the source, stated change not applied): as the sequence (Q9Y3N9 whole entry) above, with G96V counted along it
Just give me one of these, please: active, inactive

Known results for molecules:
* CCC1OC(C)=C(O)C1=O (stereo unspecified) | inactive
* CCCC(S)CCOC(C)=O (stereo unspecified) | active
* CC1=C(O)C(=O)OC1C (stereo unspecified) | inactive
* CC1=C(O)C(=O)C(C)O1 (stereo unspecified) | inactive
* CC1=NC(C)C(C)S1 (stereo unspecified) | inactive

[ask] Just curious, what result did CCC1OC(=O)C(O)=C1C (stereo unspecified) get here?
[reply] inactive
